# SYSTEM NAME: CdRelQ (Clostridioides difficile)
# Sequence (A0A9R0BI07 1-270): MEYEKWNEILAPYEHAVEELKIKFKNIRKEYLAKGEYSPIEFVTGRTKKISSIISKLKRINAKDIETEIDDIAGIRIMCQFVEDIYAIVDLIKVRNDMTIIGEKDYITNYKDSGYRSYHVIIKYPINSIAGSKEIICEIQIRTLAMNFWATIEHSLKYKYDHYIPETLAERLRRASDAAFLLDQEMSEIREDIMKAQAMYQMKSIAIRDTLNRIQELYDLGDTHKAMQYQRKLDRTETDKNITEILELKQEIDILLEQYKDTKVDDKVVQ
# ASSAY METHOD TEXT: isothermal titration calorimetry, single-binding-site model
Below, each entry is listed with its recorded Kd.
MEASURED METRIC: Kd (µM)

> print(dat)
                            molecule.smiles  measured.metric  numeric.result
1  Nc1nc2c(ncn2[C@@H]2O[C@H](COP(=O)(O)OP(=O)(O)OP(=O)(O)O)[C@@H](O)[C@H]2O)c(=O)[nH]1               Kd            20.5
2  Nc1nc2c(ncn2[C@@H]2O[C@H](COP(=O)(O)OP(=O)(O)O)[C@@H](O)[C@H]2O)c(=O)[nH]1               Kd             490

Data origin, for the record: paper doi:10.1101/2021.08.02.454818v1
